Tested system: Tyrosine-protein kinase ITK/TSK (Homo sapiens);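 note: mean percent inhibition of ITK from the GSK PKIS screen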
Recorded conditions: at 0.1 µM
// Criterion not met strictly below 1% in inhibition; Criterion met otherwise

Hello, I need to know if `CN1CCC(n2cnc(-c3ccc(F)cc3)c2-c2ccnc(NCCO)n2)CC1` has measured inhibition not below 1%. Thanks!
Criterion met

What do we get for `CC(C)c1ccc(-c2cc(-c3c[nH]nc3-c3ccccn3)ccn2)cc1` ?
Criterion not met

What do we get for `CNC(=O)c1ncccc1Nc1nc(Nc2cc3c(cc2OC)CCCN3C(=O)CN(C)C)nc2[nH]ccc12` ?
Criterion met

What do we get for `Fc1ccc(Nc2nccc(-c3c(-c4ccc(C(F)(F)F)cc4)nn4ncccc34)n2)cc1F` ?
Criterion met

What do we get for `CC1(C)CC(n2cnc(-c3ccc(F)cc3)c2-c2ccnc(N)n2)CC(C)(C)N1` ?
Criterion not met

----------
Tested system: Calcium/calmodulin-dependent protein kinase type 1D (Homo sapiens) (UniProt Q8IU85);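 note: reported figure is the mean percent inhibition of CAMK1D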
Sequence (Q8IU85 whole entry, looked up): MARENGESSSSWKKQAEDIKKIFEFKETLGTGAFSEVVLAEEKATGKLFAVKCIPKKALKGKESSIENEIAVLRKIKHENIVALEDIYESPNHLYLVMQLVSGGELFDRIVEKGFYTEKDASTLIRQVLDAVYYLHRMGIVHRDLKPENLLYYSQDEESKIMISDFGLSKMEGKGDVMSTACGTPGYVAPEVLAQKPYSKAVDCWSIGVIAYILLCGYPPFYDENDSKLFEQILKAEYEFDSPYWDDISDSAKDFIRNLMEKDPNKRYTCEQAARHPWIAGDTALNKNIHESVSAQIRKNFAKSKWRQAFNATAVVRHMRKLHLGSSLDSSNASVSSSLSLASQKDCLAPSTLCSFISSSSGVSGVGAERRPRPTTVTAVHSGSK
Recorded conditions: at 1 µM
Measured metric: inhibition (%)
Please give a number only; it is taken to be in %.

Item `NC(=O)c1ccc2c(-c3ccnc(NCCCO)n3)c(-c3ccc(F)cc3)nn2c1` has what recorded inhibition?
1.6

What do we get for `CS(=O)(=O)CCNCc1ccc(-c2ccc3ncnc(Nc4ccc(OCc5cccc(C(F)(F)F)c5)cc4)c3c2)o1` ?
0.88

What do we get for `O=C1Nc2ccccc2/C1=C1\CCc2cc(O)ccc21` ?
3.43

----------
Tested system: Phosphatidylinositol 4,5-bisphosphate 3-kinase catalytic subunit alpha isoform (Homo sapiens) (UniProt P42336);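 note: values are mean percent inhibition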
Sequence (P42336 whole entry, canonical isoform): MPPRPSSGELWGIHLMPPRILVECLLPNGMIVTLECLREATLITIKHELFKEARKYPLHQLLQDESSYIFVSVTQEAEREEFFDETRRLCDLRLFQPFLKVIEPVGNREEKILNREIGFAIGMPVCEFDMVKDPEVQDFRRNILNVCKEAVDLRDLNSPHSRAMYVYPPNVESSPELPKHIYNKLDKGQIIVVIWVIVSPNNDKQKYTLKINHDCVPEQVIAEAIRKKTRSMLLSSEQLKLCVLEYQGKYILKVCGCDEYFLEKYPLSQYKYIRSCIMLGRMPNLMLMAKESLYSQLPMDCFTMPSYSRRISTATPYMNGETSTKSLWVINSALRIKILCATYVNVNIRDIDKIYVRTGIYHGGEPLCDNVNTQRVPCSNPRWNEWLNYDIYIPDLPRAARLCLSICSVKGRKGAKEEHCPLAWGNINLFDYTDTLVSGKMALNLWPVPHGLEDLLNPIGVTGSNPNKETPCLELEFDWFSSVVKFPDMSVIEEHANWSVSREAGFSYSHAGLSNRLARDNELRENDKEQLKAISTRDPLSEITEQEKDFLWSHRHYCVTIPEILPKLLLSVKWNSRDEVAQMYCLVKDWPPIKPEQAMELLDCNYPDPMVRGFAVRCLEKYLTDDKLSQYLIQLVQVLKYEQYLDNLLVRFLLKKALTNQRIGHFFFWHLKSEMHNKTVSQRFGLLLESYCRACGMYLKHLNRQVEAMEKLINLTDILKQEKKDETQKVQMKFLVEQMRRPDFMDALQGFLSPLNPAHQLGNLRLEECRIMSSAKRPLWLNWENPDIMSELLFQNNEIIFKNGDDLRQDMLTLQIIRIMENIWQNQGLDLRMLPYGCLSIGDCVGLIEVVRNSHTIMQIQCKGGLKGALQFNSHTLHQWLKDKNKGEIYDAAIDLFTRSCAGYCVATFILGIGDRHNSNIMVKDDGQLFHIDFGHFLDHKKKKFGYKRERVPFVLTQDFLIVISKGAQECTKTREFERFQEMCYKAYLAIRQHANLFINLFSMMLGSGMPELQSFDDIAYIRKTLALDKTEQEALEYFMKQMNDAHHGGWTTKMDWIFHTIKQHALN
Recorded conditions: at 1 µM
Measured metric: inhibition (%)
Please give a number only; it is taken to be in %.

Item `FC(F)(F)CNc1nccc(-c2cnn3ncccc23)n1` has what recorded inhibition?
3.51

What do we get for `COc1cc2c(cc1Nc1nc(Nc3cccc(F)c3C(N)=O)c3cc[nH]c3n1)N(C(=O)CN1CCN(C(C)C)CC1)CC2` ?
0.15

What do we get for `O=C(O[C@H]1CN[C@H](C#Cc2cc3ncnc(Nc4ccc5c(cnn5Cc5ccccc5)c4)c3s2)C1)N1CCOCC1` ?
7.49

What do we get for `Cc1ccc(-c2cc3c(NC(=O)C4CC4)ncnc3o2)cc1` ?
2.63

What do we get for `CCS(=O)(=O)c1ccc(OC)c(Nc2ncc(-c3cccc(C(C)=O)c3)o2)c1` ?
1.8

What do we get for `NS(=O)(=O)c1ccc(N/N=C2\C(=O)Nc3ccc(C(=O)NCc4ccncc4)cc32)cc1` ?
0.8

What do we get for `CCOc1ccc2c(-c3ccnc(Nc4cc(OC)cc(C(F)(F)F)c4)n3)cnn2n1` ?
5.25

What do we get for `CS(=O)(=O)Nc1ccc(-c2cc(-c3ccccc3)cc(C(N)=O)c2N)cc1` ?
3.21

What do we get for `N#Cc1cccc(Nc2ncc(-c3ccccc3)o2)c1` ?
-1.04

What do we get for `OCCCNc1nccc(-c2c(-c3ccc(F)cc3)nn3cc(C(F)(F)F)ccc23)n1` ?
2.75

What do we get for `COc1cc(N2CCN(C(C)C)CC2)ccc1Nc1nc(Nc2cccc3ncccc23)c2cc[nH]c2n1` ?
1.96

----------
Tested system: Proto-oncogene tyrosine-protein kinase ROS (Homo sapiens);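 note: value given is the mean percent inhibition of ROS kinase activity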
Recorded conditions: at 1 µM
Measured metric: inhibition (%)
Please give a number only; it is taken to be in %.

Item `FC(F)(F)CNc1nccc(-c2cnn3ncccc23)n1` has what recorded inhibition?
2.27

What do we get for `Cn1c(-c2nonc2N)nc2cnccc21` ?
3.73

What do we get for `NS(=O)(=O)c1ccc(N/N=C2\C(=O)Nc3cccc(CCc4ccncc4)c32)cc1` ?
9.09

What do we get for `O=C(O[C@H]1CN[C@H](C#Cc2cc3ncnc(Nc4ccc(OCc5cccc(F)c5)c(Cl)c4)c3s2)C1)N1CCOCC1` ?
8.8

What do we get for `Cc1ccc(-c2cc3c(NC(=O)C4CC4)ncnc3o2)cc1` ?
16.3

What do we get for `COc1ccccc1-c1cc(/C=C2\C(=O)Nc3ncc(Br)cc32)cc(Br)c1O` ?
26.1

What do we get for `CS(=O)(=O)Nc1ccc(-c2cc(-c3ccccc3)cc(C(N)=O)c2N)cc1` ?
6.51

What do we get for `NS(=O)(=O)c1cccc(N/C=C2\C(=O)Nc3ccccc32)c1` ?
9.87

What do we get for `N#Cc1cccc(Nc2ncc(-c3ccccc3)o2)c1` ?
3.19

What do we get for `CS(=O)(=O)CCNCc1ccc(-c2ccc3ncnc(Nc4ccc(OCc5ccccc5)cc4)c3c2)o1` ?
8.89

What do we get for CC1=C(C(=O)Nc2ccc3[nH]nc(C)c3c2)C(c2ccc(C(F)(F)F)cc2)CC(=O)N1 (stereo not drawn) ?
17.6

What do we get for `COc1c(C(N)=O)cc(-c2ccc(Cl)cc2)cc1-c1ccc(S(N)(=O)=O)cc1` ?
14.6

What do we get for `Cc1nnc(-c2cccc(-c3ccc(C(=O)NCC4CC4)cc3)c2)o1` ?
6.04

What do we get for `CCCNc1cccc(-n2ncc3c(N/N=C/c4ccncc4)ncnc32)c1` ?
33.4

What do we get for `Fc1cccc(COc2ccc(Nc3ncncc3C#Cc3ccccc3)cc2Cl)c1` ?
4.43

What do we get for `CS(=O)(=O)CCNCc1ccc(-c2ccc3ncnc(Nc4ccc(OCc5cccc(C(F)(F)F)c5)cc4)c3c2)o1` ?
8.72

What do we get for `CS(=O)(=O)Nc1ccc(-c2ccc3c(NC(=O)C4CC4)n[nH]c3c2)cc1` ?
11.7

What do we get for `Fc1ccc(Nc2nccc(-c3c(-c4ccc(C(F)(F)F)cc4)nn4ncccc34)n2)cc1F` ?
8.15

----------
Tested system: Phosphatidylinositol 4-kinase beta (Homo sapiens);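 note: values given are mean percent inhibition of PI4K-beta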
Recorded conditions: at 0.1 µM
Measured metric: inhibition (%)
Please give a number only; it is taken to be in %.

Item `N#Cc1ccc2c(-c3ccnc(NC4CC4)n3)c(-c3ccc(F)cc3)nn2c1` has what recorded inhibition?
-2.01

What do we get for `NS(=O)(=O)c1ccc(N/N=C2\C(=O)Nc3cccc(CCc4ccncc4)c32)cc1` ?
2.1

What do we get for `OCCCNc1nccc(-c2c(-c3ccc(F)cc3)nn3cc(C(F)(F)F)ccc23)n1` ?
4.2

What do we get for `CN1CCC(n2cnc(-c3ccc(F)cc3)c2-c2ccnc(NCCO)n2)CC1` ?
-3.16

What do we get for `COc1ccc2ncn(-c3cc(O[C@H](C)c4ccccc4C(F)(F)F)c(C(N)=O)s3)c2c1` ?
-1.47

What do we get for `c1ccc(-c2n[nH]cc2-c2ccnc(-c3ccc(OCCn4ccnc4)cc3)c2)nc1` ?
-2.63

What do we get for `COc1cccc(-n2ncc3c(N/N=C/c4ccc(C(=O)NCCN(C)C)cc4)ncnc32)c1` ?
-3.13

What do we get for `COc1c(C(N)=O)cc(-c2ccc(Cl)cc2)cc1-c1ccc(S(N)(=O)=O)cc1` ?
0.85

What do we get for `COc1ccccc1-c1cc(/C=C2\C(=O)Nc3ncc(Br)cc32)cc(Br)c1O` ?
-5.01

What do we get for `COc1cc(N2CCN(C(C)C)CC2)ccc1Nc1nc(Nc2cccc(F)c2C(=O)O)c2cc[nH]c2n1` ?
2.44

What do we get for `COc1cccc(Nc2nccc(-c3cnn4ncccc34)n2)c1` ?
-0.93

What do we get for `O=C(Nc1n[nH]c2nnc(-c3cccnc3)cc12)C1CC1` ?
-1.26

What do we get for `CN(c1ccc(NC(=O)NCCN2CCOCC2)cc1)c1ccnc(Nc2ccc(CS(C)(=O)=O)cc2)n1` ?
4.11

What do we get for `COc1cc(N2CCN(C(C)C)CC2)ccc1Nc1nc(Nc2cccc3ncccc23)c2cc[nH]c2n1` ?
5.9

What do we get for `CCn1c(-c2nonc2N)nc2cncc(C(=O)NCCNC)c21` ?
1.26

What do we get for `CNC(=O)c1ncccc1Nc1nc(Nc2cc3c(cc2OC)CCCN3C(=O)CN(C)C)nc2[nH]ccc12` ?
-2.24

What do we get for `CCS(=O)(=O)c1ccc(OC)c(Nc2ncc(-c3cccc(C(C)=O)c3)o2)c1` ?
2.44

What do we get for `COc1ccc(-c2nn3ncccc3c2-c2ccnc(Nc3ccc(F)c(F)c3)n2)cc1` ?
-1.35

----------
Tested system: Ephrin type-A receptor 4 (Homo sapiens) (UniProt P54764);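 note: mean inhibition of EPHA4 from the GSK PKIS screening set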
Sequence (P54764 whole entry): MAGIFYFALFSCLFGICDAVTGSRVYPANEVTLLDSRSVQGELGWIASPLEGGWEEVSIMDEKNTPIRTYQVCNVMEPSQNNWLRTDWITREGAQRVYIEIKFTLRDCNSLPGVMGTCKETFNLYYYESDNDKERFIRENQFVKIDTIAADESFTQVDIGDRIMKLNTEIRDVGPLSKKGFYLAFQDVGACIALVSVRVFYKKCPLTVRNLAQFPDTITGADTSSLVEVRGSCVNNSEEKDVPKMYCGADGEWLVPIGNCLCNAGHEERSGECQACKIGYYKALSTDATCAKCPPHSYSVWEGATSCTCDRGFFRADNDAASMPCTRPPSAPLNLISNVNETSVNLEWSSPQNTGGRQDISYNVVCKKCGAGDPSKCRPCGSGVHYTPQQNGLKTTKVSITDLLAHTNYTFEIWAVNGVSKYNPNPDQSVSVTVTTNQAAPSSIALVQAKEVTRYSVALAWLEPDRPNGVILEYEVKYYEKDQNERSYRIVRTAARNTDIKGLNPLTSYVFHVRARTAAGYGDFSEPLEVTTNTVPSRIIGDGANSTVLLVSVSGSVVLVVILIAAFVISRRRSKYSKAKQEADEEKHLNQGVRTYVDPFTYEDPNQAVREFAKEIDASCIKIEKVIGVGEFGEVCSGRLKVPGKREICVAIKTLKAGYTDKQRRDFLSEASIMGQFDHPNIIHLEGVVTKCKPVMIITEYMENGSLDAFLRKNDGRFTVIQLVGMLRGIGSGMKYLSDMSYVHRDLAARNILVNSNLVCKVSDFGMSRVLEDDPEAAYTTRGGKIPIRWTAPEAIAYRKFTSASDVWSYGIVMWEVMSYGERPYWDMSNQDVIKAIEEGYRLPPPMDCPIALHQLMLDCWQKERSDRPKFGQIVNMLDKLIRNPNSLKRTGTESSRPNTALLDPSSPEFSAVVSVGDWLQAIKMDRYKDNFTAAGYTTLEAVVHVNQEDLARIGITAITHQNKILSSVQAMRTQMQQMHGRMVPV
Recorded conditions: at 0.1 µM
Could you please report measured inhibition for the items listed next?

Item `COc1ccc(-c2nn3ncccc3c2-c2ccnc(Nc3ccc(F)c(F)c3)n2)cc1` has what recorded inhibition?
8.99%

What do we get for `CCCNc1cccc(-n2ncc3c(N/N=C/c4ccncc4)ncnc32)c1` ?
4.65%

What do we get for `CN1CCC(n2cnc(-c3ccc(F)cc3)c2-c2ccnc(NCCO)n2)CC1` ?
7.76%

What do we get for `CCS(=O)(=O)c1ccc(OC)c(Nc2ncc(-c3cccc(F)c3)o2)c1` ?
11.3%

What do we get for `CS(=O)(=O)Nc1ccc(-c2cc(-c3ccccc3)cc(C(N)=O)c2N)cc1` ?
1.75%

What do we get for `CNC(=O)c1cncc(/C=C/c2ccccc2C)c1` ?
11.7%

What do we get for `CCS(=O)(=O)c1ccc(OC)c(Nc2ncc(-c3cccc(C(C)=O)c3)o2)c1` ?
9.55%

What do we get for CC1=C(C(=O)Nc2ccc3[nH]nc(C)c3c2)C(c2ccc(C(F)(F)F)cc2)CC(=O)N1 (configuration not stated) ?
5.51%

What do we get for `COc1ccccc1-c1cc(/C=C2\C(=O)Nc3ncc(Br)cc32)cc(Br)c1O` ?
9.58%

What do we get for `NS(=O)(=O)c1ccc(N/N=C2\C(=O)Nc3cccc(CCc4ccncc4)c32)cc1` ?
3.79%

What do we get for `CN(C)CCNC(=O)Nc1ccc(N(C)c2ccnc(Nc3ccc(CS(C)(=O)=O)cc3)n2)cc1` ?
6.86%

What do we get for `CS(=O)(=O)CCNCc1ccc(-c2ccc3ncnc(Nc4ccc(OCc5cccc(C(F)(F)F)c5)cc4)c3c2)o1` ?
6.4%

What do we get for `CCn1c(-c2nonc2N)nc2cncc(C(=O)NCCNC)c21` ?
7.32%

What do we get for `CCN1CCC(C(=O)Nc2n[nH]c3nnc(-c4cccc(F)c4F)cc23)CC1` ?
-1.7%

What do we get for `NC(=O)c1ccc2c(-c3ccnc(NCCCO)n3)c(-c3ccc(F)cc3)nn2c1` ?
11.8%

What do we get for `Cc1c2ccc(N(C)c3ccnc(Nc4cccc(S(N)(=O)=O)c4)n3)cc2nn1C` ?
8.51%

What do we get for `Fc1ccc(Nc2nccc(-c3c(-c4ccc(C(F)(F)F)cc4)nn4ncccc34)n2)cc1F` ?
5.7%
